Sourced from patent US20100093811A1

- SYSTEM UNDER TEST: wild-type HIV-1 protease (Human immunodeficiency virus type 1 group M subtype B)
- EXPERIMENT: Assay for inhibition of microbial expressed HIV protease
- Format: biochemical
- CONDITION NOTES: wild-type HIV-1 protease expressed in E. coli, peptide substrate, pH 5.5; read-out: Enzyme Inhibition - IC50
pIC50: −log10 of the molar value.
Tag: T if measured pIC50 is not below 10, F if it is.

- COC(=O)N[C@H](C(=O)N[C@H](CCC[C@@H](CO)N(CCC(C)C)S(=O)(=O)c1ccc(CO)cc1)C(F)(F)C(F)(F)F)C(c1ccccc1)c1ccccc1: T
- COC(=O)N[C@H](C(=O)N[C@@H](C)CCC[C@@H](CO)N(CCC(C)C)S(=O)(=O)c1ccc(N)cc1)C(c1ccccc1)c1ccccc1 [D1(R)]: F
- CC[C@@H](CCC[C@@H](CO)N(CC(C)C)S(=O)(=O)c1ccc(CO)cc1)NC(=O)[C@@H](NC(=O)OC)C(c1ccc(F)cc1)c1ccc(F)cc1: T
- COC(=O)N[C@H](C(=O)N[C@H](CCC[C@@H](CO)N(CCC(C)C)S(=O)(=O)c1ccc(N)c(F)c1)C(C)C)C(c1ccccc1)c1ccccc1: F
- COC(=O)N[C@H](C(=O)N[C@@H](C)CCC[C@@H](CO)N(CC(C)C)S(=O)(=O)c1ccc(CO)cc1)C(c1ccccc1)c1ccccc1: T

###

- System: acute HIV infection of T-lymphoid cells
- EXPERIMENT: Assay for inhibition of HIV replication (spread assay)
- Format: cell-based, HIV-1
- CONDITION NOTES: Human immunodeficiency virus 1, T-lymphoid; read-out: Spread - IC95
MEASUREMENT TYPE: IC95

• CCN([C@H](CO)CCC[C@H](C)NC(=O)[C@@H](NC(=O)OC)C(c1ccccc1)c1ccccc1)S(=O)(=O)c1ccc(CO)cc1 = 37 nM
• COC(=O)N[C@@H](Cc1cccc2ccccc12)C(=O)N[C@H](CCC[C@@H](CO)N(CCC(C)C)S(=O)(=O)c1ccc(N)cc1)C1CC1 = 117 nM
• CC[C@@H](CCC[C@@H](CO)N(CC(C)C)S(=O)(=O)c1ccc(CO)cc1)NC(=O)[C@H](Cc1ccccc1Cl)NC(=O)OC = 49 nM

###

- SYSTEM UNDER TEST: wild-type HIV-1 protease (Human immunodeficiency virus type 1 group M subtype B)
- EXPERIMENT: Assay for inhibition of microbial expressed HIV protease
- Assay type: biochemical
- CONDITION NOTES: wild-type HIV-1 protease expressed in E. coli, peptide substrate, pH 5.5; read-out: Enzyme Inhibition - IC50
The following compounds are shown together with reported log10(IC50) values.
MEASUREMENT TYPE: log10(IC50) (log10 of the value in nM)

• CC[C@@H](CCC[C@@H](CO)N(CCC(C)C)S(=O)(=O)c1ccc(N)c(Br)c1)NC(=O)[C@@H](NC(=O)OC)C(c1ccccc1)c1ccccc1 = -0.42
• COC(=O)N[C@H](C(=O)N[C@H](C)CCC[C@@H](CO)N(CCC(C)C)S(=O)(=O)c1ccc(N)cc1)C(c1ccccc1)c1ccccc1 (single isomer, unassigned) [D1(S)] = -2.10
• CCCN([C@H](CO)CCC[C@H](CC)NC(=O)[C@@H](NC)C(c1ccccc1)c1ccccc1)S(=O)(=O)c1ccc(CO)cc1 = -1.01
• COC(=O)N[C@H](C(=O)N[C@@H](C)CCC[C@@H](CO)N(C)S(=O)(=O)c1ccc(CO)cc1)C(c1ccccc1)c1ccccc1 = -0.42
• COC(=O)N[C@H](C(=O)N[C@@H](C)CCC[C@@H](CO)N(C(C)C)S(=O)(=O)c1ccc(CO)cc1)C(c1ccccc1)c1ccccc1 = -1.74
• COC(=O)N[C@H](C(=O)NC(C)(C)CCC[C@@H](CO)N(C(C)C)S(=O)(=O)c1ccc(N)cc1)C(c1ccccc1)c1ccccc1 = -0.57
